# Test system: CEM cells HIV-1 protection, formazan growth assay
# METHOD_SUMMARY: NCI AIDS Antiviral Assay
# APPLIED_CONDITIONS: measured here: growth of uninfected CEM cells
pIC50: −log10 of the molar value.
Each entry below carries its recorded pIC50.

Worked set:
[[record]]
compound = "C=C1CN(S(=O)(=O)c2ccc(C)cc2)CCCN(CC2CC=CCC2)CCCN(S(=O)(=O)c2ccc(C)cc2)C1 (stereo unspecified)"
measured = 5.89

[[record]]
compound = "COc1cccc(C2SC(N)=Nc3c2c(C)nn3C(=O)c2ccccc2O)c1 (stereo unspecified)"
measured = 6.77

[[record]]
compound = "CC1OC(OCC2OC(Oc3c(-c4ccc(O)cc4)oc4cc(O)cc(O)c4c3=O)C(OC3OC(C)C(O)C(O)C3O)C(O)C2O)C(O)C(O)C1O (stereo unspecified)"
measured = "< 3.47"

[[record]]
compound = "COC1CC(C)(NC(C)=O)C2OC(c3ccccc3)OCC2O1 (stereo unspecified)"
measured = "< 3.70"

[[record]]
compound = "Cc1n[nH]c(=O)n1/N=C/c1ccncc1"
measured = 3.99


Req: Please report the recorded pIC50 for "O=C(c1ccc([N+](=O)[O-])cc1)N1CCCC1" .
Resp: < 3.70

Req: Record: COc1ccc(C2C3CCCC(C3=O)C(c3ccc(OC)cc3)N2N=O)cc1 (stereo unspecified)
Resp: < 4.72

Req: Record: "Cc1ccc(C(=O)Nc2ccc(CP(=O)(O)O)cc2CP(=O)(O)O)cc1NC(=O)c1cccc(N)c1"
Resp: < 3.70
